# System: TO-N3-2 (biotin conjugate)
# method.summary: pull-down binding Z-score (relative to library population); higher = stronger binding
# measurement.context: RNA library: Library-2

sequence.record	target.of.assay	pull-down binding Z-score
CGUGCGCCAGUGGAG [hsa-mir-6089-2_6089-1]	TO-N3-2 (biotin conjugate)	0.982
AGUUAGAAUUCUUAAGUAUCAAAACUAAAU [hsa-mir-4760]	TO-N3-2 (biotin conjugate)	-0.12
UUCUUCCUGGAGUCGGGGAAAAG [hsa-mir-320e]	TO-N3-2 (biotin conjugate)	0.278

---

# Test system: TO-N3 (biotin conjugate)
# method.summary: pull-down binding Z-score (relative to library population); higher = stronger binding
# measurement.context: RNA library: Library-2
Assign class by pull-down binding Z-score: not lower than 0.2 means met; lower than 0.2 means not met.

sequence.record	class.name
AGACCUUCCUUCCUUGUCU [hsa-mir-3163]	not met
CUGGGAGGUGUGAUCCUGUGCUUCCUGG [hsa-mir-3689a]	met
CAGUGGGGACAUG [hsa-mir-4531]	met
GACAUUUUAUCUUACUAAUGAUGUUUCUUUUUUAGCACAUAUUCAGUGGAUGGUUAUGUU [DMSMaPseq_invitro_SARS-CoV-2_Motif_175]	met
GAUUUUUUAGAUUCUAAAGAAAC [hsa-mir-1255a]	not met
UAGGCUGUUUCCAUCUGUGAGGCCUA [hsa-mir-26a-2]	not met
AAAUUACCAUUUCAUCUUUUAAAUGGGAUUU	not met
GCAGAAAUCACUCCAGGAGCAACUGA [hsa-mir-936]	met
UGUGUGUCGCUCCGGGUCCACG [hsa-mir-574]	met
CUCGUCUAUCUUCUGCAGGCUGCUUACGGUUUCGUCCGUGUUGCAGCCGAUCAUCAGCACAUCUAGGUUUCGUCCGGGUGUGACCGAAAGGUAAGAUGGAGAG	not met
CUCAGCAUGUUGAGCCCUGUCUCUGGGGAGCUGAC [hsa-mir-6505]	met
GAUGUAUCCAAGUACCCUGUGUUAUUUGGCAAUAAAUACAUC [hsa-mir-1298]	not met
GCAGCCAAACUAAUGGUUGU	met
CAUUAACGUGGACCAGACAAUAUUAAUG [hsa-mir-4491]	not met
UAUGCCUACAAAAUCCCUCCAGACUGGCAUA [hsa-mir-4666a]	not met
AAGACUCAUCUCUAUGAUGGGUUUU	not met
CAGGUUUGUGAGAUACUUACCUG [U1snRNP5ss-14]	not met
CUUUCUGUUGUCUGAAAGAAAAGAAAA [hsa-mir-522]	met
UUGCUCACGGUAAGAAAAACAUGAGUAA [hsa-mir-8062]	met
